Target: human 5-HT2A receptor (Homo sapiens)
Construct: expressed in transfected cells; host or cells: CHO
Sequence (P28223 whole entry): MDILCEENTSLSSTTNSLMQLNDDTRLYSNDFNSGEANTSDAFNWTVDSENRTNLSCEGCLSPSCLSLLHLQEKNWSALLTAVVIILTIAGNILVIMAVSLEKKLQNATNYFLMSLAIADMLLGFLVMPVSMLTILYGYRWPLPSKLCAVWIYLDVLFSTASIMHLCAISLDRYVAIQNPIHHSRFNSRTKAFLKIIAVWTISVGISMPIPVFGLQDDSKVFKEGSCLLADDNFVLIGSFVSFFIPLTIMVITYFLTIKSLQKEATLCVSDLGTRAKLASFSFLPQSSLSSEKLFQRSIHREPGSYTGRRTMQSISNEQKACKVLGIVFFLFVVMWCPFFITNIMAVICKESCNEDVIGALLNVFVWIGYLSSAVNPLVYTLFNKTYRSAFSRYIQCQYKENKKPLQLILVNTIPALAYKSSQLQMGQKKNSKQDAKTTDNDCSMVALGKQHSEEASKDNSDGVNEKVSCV
Assay: 5-HT2A FLIPR assay (calcium response to DOI) in CHO cells
Format: cell-based
Settings: CHO, read-out: 5-HT2A Percentage inhibition at 1 μM
Structures can show the parent of a compound that is named as a salt.
Measured attribute: inhibition at 1 µM

For the compound CNC[C@@H](O)[C@H](c1ccccc1)n1ccc2c(OCc3ccccc3)cccc21 [Example 2, hydrochloride] , what inhibition at 1 µM is on record?
29%

For the compound O=C1N([C@@H](c2ccccc2)[C@H](O)CN2CCOCC2)c2ccc(F)cc2C12CCCCC2 [Example 104, hydrochloride] , what inhibition at 1 µM is on record?
22%

For the compound CNC[C@@H](O)[C@H](c1ccccc1)N1C(=O)C2(CCCCC2)c2ccc(C#N)cc21 [Example 108, hydrochloride] , what inhibition at 1 µM is on record?
11%

For the compound CNC[C@@H](O)[C@H](c1ccccc1)n1ccc2c(-c3ccccc3)cccc21 [Example 21, hydrochloride] , what inhibition at 1 µM is on record?
27%

For the compound CNC[C@@H](O)[C@H](c1ccccc1)n1ccc2cc(NC(=O)c3ccccc3)ccc21 [Example 75, hydrochloride] , what inhibition at 1 µM is on record?
34%

For the compound CC(C)NC[C@@H](O)[C@H](c1ccccc1)n1ccc2cc(OCc3ccccc3)ccc21 [Example 85, hydrochloride] , what inhibition at 1 µM is on record?
32%

For the compound CNC[C@@H](O)[C@H](c1ccccc1)n1ccc2cc(C#Cc3ccccc3)ccc21 [Example 93, hydrochloride] , what inhibition at 1 µM is on record?
36%

For the compound CC(C)NC[C@@H](O)[C@H](c1ccccc1)N1C(=O)C2(CCCCC2)c2ccc(F)cc21 [Example 97, hydrochloride] , what inhibition at 1 µM is on record?
44%

For the compound CNC[C@@H](O)[C@H](c1ccccc1)n1ccc2c(Oc3ccccc3)cccc21 [Example 20, hydrochloride] , what inhibition at 1 µM is on record?
30%

For the compound CNC[C@@H](O)[C@H](c1ccccc1)N1CCc2cc(OCc3ccccc3)ccc21 [Example 26, hydrochloride] , what inhibition at 1 µM is on record?
23%

For the compound CNC[C@@H](O)[C@H](c1ccccc1)n1ccc2ccc(OCc3ccccc3)cc21 [Example 3, hydrochloride] , what inhibition at 1 µM is on record?
39%

For the compound CN1CCN(C[C@@H](O)[C@H](c2ccccc2)n2ccc3cc(OCc4ccccc4)ccc32)CC1 [Example 91, hydrochloride] , what inhibition at 1 µM is on record?
29%

For the compound CNC[C@@H](O)[C@H](c1ccccc1)N1CCc2cc(NC(=O)c3ccccc3)ccc21 [Example 74, hydrochloride] , what inhibition at 1 µM is on record?
24%

For the compound CCN(CC)C[C@@H](O)[C@H](c1ccccc1)n1ccc2cc(OCc3ccccc3)ccc21 [Example 88, hydrochloride] , what inhibition at 1 µM is on record?
33%

====

Molecular target: human 5-HT2A receptor (Homo sapiens)
Construct: expressed in transfected cells; host or cells: CHO
Assay: 5-HT2A FLIPR assay (calcium response to DOI) in CHO cells
Type: cell-based
Details: CHO, read-out: 5-HT2A Percentage inhibition at 1 μM
Structures can show the parent of a compound that is named as a salt.
Measured attribute: inhibition at 1 µM (%)
Express the result in % but write the number alone.

For the compound CNC[C@@H](O)[C@H](c1ccccc1)n1ccc2cc(Oc3ccccc3)ccc21 [Example 19, hydrochloride] , what inhibition at 1 µM is on record?
39

For the compound CNC[C@@H](O)[C@H](c1ccccc1)n1ccc2cc(NC(=O)C3CCCCC3)ccc21 [Example 77, hydrochloride] , what inhibition at 1 µM is on record?
51

For the compound CNC[C@@H](O)[C@H](c1cccc(F)c1)n1ccc2cc(OCc3ccccc3)ccc21 [Example 24, hydrochloride] , what inhibition at 1 µM is on record?
20

For the compound CC(C)NC[C@@H](O)[C@H](c1ccccc1)N1C(=O)C2(CCCCC2)c2cc(F)ccc21 [Example 101, hydrochloride] , what inhibition at 1 µM is on record?
22

For the compound O[C@H](CN1CCCC1)[C@H](c1ccccc1)n1ccc2cc(OCc3ccccc3)ccc21 [Example 89, hydrochloride] , what inhibition at 1 µM is on record?
32

For the compound CNC[C@@H](O)[C@H](c1ccccc1)N1CCc2cc(NC(=O)c3cccc(Cl)c3)ccc21 [Example 72, hydrochloride] , what inhibition at 1 µM is on record?
60

For the compound CNC[C@@H](O)[C@H](c1ccccc1)n1ccc2cc(OCc3cccc(Cl)c3)ccc21 [Example 9, hydrochloride] , what inhibition at 1 µM is on record?
39
